# measured target: IRAK4 (Homo sapiens, UniProt Q9NWZ3)
# Construct: endogenous in cells; host or cells: OCI-LY10
# Sequence (Q9NWZ3 1-460): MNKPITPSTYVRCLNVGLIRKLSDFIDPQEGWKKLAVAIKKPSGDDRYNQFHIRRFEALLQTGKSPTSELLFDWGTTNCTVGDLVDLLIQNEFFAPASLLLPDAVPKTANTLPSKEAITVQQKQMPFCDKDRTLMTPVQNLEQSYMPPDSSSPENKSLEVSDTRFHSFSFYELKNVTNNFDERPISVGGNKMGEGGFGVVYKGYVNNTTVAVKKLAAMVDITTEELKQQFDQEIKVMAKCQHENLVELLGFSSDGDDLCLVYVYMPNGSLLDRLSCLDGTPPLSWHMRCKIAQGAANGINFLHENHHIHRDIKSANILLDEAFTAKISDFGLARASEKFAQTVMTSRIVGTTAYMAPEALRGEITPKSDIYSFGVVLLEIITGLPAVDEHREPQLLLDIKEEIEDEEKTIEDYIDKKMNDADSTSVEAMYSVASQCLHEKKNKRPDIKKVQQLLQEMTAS
# assay comment: IRAK4 MSD Degradation in OCI-LY10
# Type: cell-based
# condition description: OCI-LY10 cells, Meso Scale Discovery, incubated 4 to 24 hours
# Experimental: Degradation of IRAK4 in OCI-LY10 was quantitatively measured using Meso Scale Discovery technology. OCI-LY10 cells were seeded in 96-well plates (Corning 3799) with a density of 300,000 cells per well in 100 μL fresh media. […] The assay plates were then incubated at room temperature for 1 hour, washed 3 times with 150 μL/well TBST buffer, and 150 μL/well MSD reading buffer (Meso Scale Discovery catalog number R92TC-2) was added. […]
result type: DC50

# annotated cases, reported DC50 shown
• COc1cc2nn([C@H]3CC[C@H](CN4CCN(c5ccc6c(N7CCC(=O)NC7=O)cncc6c5)CC4)CC3)cc2cc1NC(=O)c1cccc(C(F)(F)F)n1 = < 0.01 µM
• CC(C)(O)c1cc2nc([C@H]3CC[C@H](CN4CCN(CCCNc5cccc6c5C(=O)N(C5CCC(=O)NC5=O)C6=O)CC4)CC3)sc2cc1NC(=O)c1cccc(C#N)n1 (stereo partly shown) = 0.01 to 0.05 µM
• Cn1c(=O)n(C2CCC(=O)NC2=O)c2ccc(Cl)c(C3CCN(C[C@H]4CC[C@H](n5cc6cc(NC(=O)c7cccc(C(F)(F)F)n7)ccc6n5)CC4)CC3)c21 (stereo partly shown) = 0.01 to 0.05 µM
• CN(C(=O)[C@H]1CC[C@H](n2cc3cc(NC(=O)c4cccc(C(F)(F)F)n4)ncc3n2)CC1)C1CCN(c2cccc3c2n(C)c(=O)n3C2CCC(=O)NC2=O)CC1 (stereo partly shown) = < 0.01 µM
• CN(CCCNc1cccc2c1C(=O)N(C1CCC(=O)NC1=O)C2=O)C(=O)[C@H]1CC[C@H](c2nc3cc(C(C)(C)O)c(NC(=O)c4cccc(C(F)(F)F)n4)cc3s2)CC1 (stereo partly shown) = > 0.2 µM

Request: Value lookup for DC50; key = COc1cc2nn(CCN(C)C3CCN(c4cccc5c4n(C)c(=O)n5C4CCC(=O)NC4=O)CC3)cc2cc1NC(=O)c1cnn2cccnc12 (stereo not shown)
Response: 0.1 to 0.2 µM

Request: Field entry: `CCc1cc2nn([C@H]3CC[C@H](CN4CCN(c5cccc6c(N7CCC(=O)NC7=O)cncc56)CC4)CC3)cc2cc1NC(=O)c1cccc(C(F)(F)F)n1`
Response: < 0.01 µM

Request: Please do the same for Cc1c(C2CCN(C[C@H]3CC[C@H](n4cc5cc(NC(=O)c6cccc(C(F)(F)F)n6)ccc5n4)CC3)CC2)ccc2c1n(C)c(=O)n2C1CCC(=O)NC1=O (stereo partly shown) as well.
Response: > 0.2 µM

---

# measured target: IRAK4 (Homo sapiens)
# Construct: endogenous in cells; host or cells: OCI-LY10
# assay comment: IRAK4 MSD Degradation in OCI-LY10
# Assay type: cell-based
# condition description: OCI-LY10 cells, Meso Scale Discovery, incubated 4 to 24 hours
result type: DC50

Recorded results for 2 compounds are shown here.
• Cc1cc2nn([C@H]3CC[C@H](CN4CCC(c5cccc6c5n(C)c(=O)n6[C@H]5CCC(=O)NC5=O)CC4)CC3)cc2cc1NC(=O)c1cccc(C(F)(F)F)n1 (single isomer, unassigned) [I-390] = 10 to 50 nM
• Cn1c(=O)n(C2CCC(=O)NC2=O)c2cccc(C3CCN(C[C@H]4CC[C@H](n5cc6cc(NC(=O)c7cccc(C(F)(F)F)n7)c(C(F)(F)F)cc6n5)CC4)CC3)c21 (stereo partly drawn) [I-76] = 10 to 50 nM

From here, focus on the item given below.
Request: Quick one: DC50 for Cn1c(=O)n(C2CCC(=O)NC2=O)c2cccc(C3CCN(C[C@H]4CC[C@H](n5cc6cc(NC(=O)c7cccc(C(F)(F)F)n7)ccc6n5)CC4)C(C(F)(F)F)C3)c21 (stereo partly drawn) [I-172] ?
Response: > 200 nM

---

# measured target: IRAK4 (Homo sapiens)
# Construct: endogenous in cells; host or cells: OCI-LY10
# Sequence (Q9NWZ3 1-460): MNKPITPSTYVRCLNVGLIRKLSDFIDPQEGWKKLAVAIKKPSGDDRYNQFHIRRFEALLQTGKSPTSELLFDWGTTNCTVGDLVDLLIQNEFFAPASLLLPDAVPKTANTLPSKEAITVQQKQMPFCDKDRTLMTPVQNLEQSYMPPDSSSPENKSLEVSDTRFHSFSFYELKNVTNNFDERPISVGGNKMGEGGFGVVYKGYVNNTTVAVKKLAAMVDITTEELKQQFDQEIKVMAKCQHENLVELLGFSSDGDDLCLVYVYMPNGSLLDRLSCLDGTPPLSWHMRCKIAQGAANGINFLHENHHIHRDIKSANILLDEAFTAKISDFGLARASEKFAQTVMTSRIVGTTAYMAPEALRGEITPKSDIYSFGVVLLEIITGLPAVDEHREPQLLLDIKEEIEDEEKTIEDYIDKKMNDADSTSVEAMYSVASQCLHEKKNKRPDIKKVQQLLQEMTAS
# assay comment: IRAK4 MSD Degradation in OCI-LY10
# Format: cell-based
# condition description: OCI-LY10 cells, Meso Scale Discovery, incubated 4 to 24 hours
# Procedure: Degradation of IRAK4 in OCI-LY10 was quantitatively measured using Meso Scale Discovery technology. OCI-LY10 cells were seeded in 96-well plates (Corning 3799) with a density of 300,000 cells per well in 100 μL fresh media. […] The assay plates were then incubated at room temperature for 1 hour, washed 3 times with 150 μL/well TBST buffer, and 150 μL/well MSD reading buffer (Meso Scale Discovery catalog number R92TC-2) was added. […]
result type: DC50

• CC(C)Nc1c(C(=O)N[C@H]2CC[C@H](CN3CCN(c4cccc5c(N6CCC(=O)NC6=O)cncc45)CC3)CC2)cnc2c1Oc1ccc(C#N)cc1O2 = > 200 nM
• CC(C)Nc1cc(-n2ccc3cc(C#N)cnc32)ncc1C(=O)NC[C@H]1CC[C@H](CN(C)C2CCN(c3cccc4c3n(C)c(=O)n4C3CCC(=O)NC3=O)CC2)CC1 (some centres unmarked) [I-105] = 50 to 100 nM
• COc1cc2nn([C@H]3CC[C@H](CN(C)C4CCN(c5cc(Cl)cc6c5n(C)c(=O)n6C5CCC(=O)NC5=O)CC4)CC3)cc2cc1NC(=O)c1cccc(C(F)(F)F)n1 (some centres unmarked) = < 10 nM
• CC(C)(O)c1cc2nc([C@H]3CC[C@H](C(=O)N4CC5(CC(CCNc6cccc7c6C(=O)N(C6CCC(=O)NC6=O)C7=O)C5)C4)CC3)sc2cc1NC(=O)c1cccc(C#N)n1 (some centres unmarked) = 50 to 100 nM
• COc1cc2nn([C@H]3C[C@H](CN4CCC(c5c(F)ccc6c5n(C)c(=O)n6C5CCC(=O)NC5=O)CC4)C3)cc2cc1NC(=O)c1cccc(C(F)(F)F)n1 (some centres unmarked) [I-89] = 10 to 50 nM

Please examine the following record next.
Request: Param item = Cn1c(=O)n(C2CCC(=O)NC2=O)c2cccc(N3CCN(C[C@H]4CC[C@H](n5cc6cc(NC(=O)c7cccc(C(F)(F)F)n7)ccc6n5)CC4)CC3)c21 (some centres unmarked) ; retrieve measured DC50.
Response: < 10 nM

---

# measured target: IRAK4 (Homo sapiens, UniProt Q9NWZ3)
# Construct: endogenous in cells; host or cells: OCI-LY10
# assay comment: IRAK4 MSD Degradation in OCI-LY10
# Assay type: cell-based
# condition description: OCI-LY10 cells, Meso Scale Discovery, incubated 4 to 24 hours
result type: DC50

Example entries and their recorded answers appear below.
- CC(C)Nc1cc(-c2ccc3cc(C#N)cnn23)ncc1C(=O)N[C@H]1CC[C@H](CN2CCC(OCC#Cc3cccc4c3n(C)c(=O)n4C3CCC(=O)NC3=O)CC2)CC1 (stereo partly drawn): 10 to 50 nM
- COc1cc2nc([C@H]3CC[C@H](CN(C)CCCCNc4cccc5c4C(=O)N(C4CCC(=O)NC4=O)C5=O)CC3)sc2cc1NC(=O)c1cncc(Cl)c1 (stereo partly drawn): > 200 nM
- C[C@@H]1CN(c2cccc3c(N4CCC(=O)NC4=O)cncc23)CCN1C[C@H]1CC[C@H](n2cc3cc(NC(=O)c4cccc(C(F)(F)F)n4)c(C(C)(C)O)cc3n2)CC1: < 10 nM

Request: Consider the compound shown here: COc1cc2nn([C@H]3CC[C@H](CN4CCC(c5cc(Cl)cc6c5n(C)c(=O)n6C5CCC(=O)NC5=O)CC4)CC3)cc2cc1NC(=O)c1cccc(C(F)(F)F)n1 (stereo partly drawn) What is its recorded DC50?
Response: < 10 nM

Request: And the next one, CC(C)Nc1cc(-n2ccc3cc(C#N)cnc32)ncc1C(=O)N[C@H]1CC[C@H](CN2CCN(c3cccc4c3n(C)c(=O)n4C3CCC(=O)NC3=O)CC2)CC1 (stereo partly drawn) ?
Response: < 10 nM

Request: Please give the result for `COc1cc2nn([C@H]3CC[C@H](CN4CCN(c5cccc6c(N7CCC(=O)NC7=O)ncnc56)CC4)CC3)cc2cc1NC(=O)c1cccc(C(F)(F)F)n1` too.
Response: 10 to 50 nM
